Values compiled from ChEMBL document CHEMBL1147922.

system: Staphylococcus aureus; test: Antibacterial activity against Staphylococcus aureus ATCC 13709; format: functional
measuredEndpoint: log10(MIC) (log10 of the value in µg/mL)
Please interpret these as log10 of MIC where MIC is in µg/mL.

molecule | log10(MIC)
CCn1cc(C(=O)O)c(=O)c2cc(F)c(N3CCNCC3)cc21 [NORFLOXACIN] | 0.00

q: Find the recorded log10(MIC) belonging to COc1ccc2nccc(-n3cc4c(n3)CCC(NC(=O)/C=C/c3ccccc3)C4)c2n1 (stereo not drawn) and report it.
a: -0.60

q: Input COc1ccc2nccc(-n3cc4c(n3)CCC(NC(=O)c3cc5c(cc3C(F)(F)F)SCC(=O)N5)C4)c2c1 (stereo not drawn)
a: -0.90

q: Input COc1ccc2nccc(-n3cc4c(n3)CCC(NC(=O)c3ccc5c(c3)OCCO5)C4)c2c1 (stereo not drawn)
a: 0.30

q: Input COc1ccc2nccc(-n3cc4c(n3)CCC(NC/C=C/c3ccccc3)C4)c2c1 (stereo not drawn)
a: -0.30
